# System: TRPC4 (transient receptor potential cation channel C4 beta), mouse
# Assay Remarks: potentiation of DAMGO EC20 TRPC4 response – cell-based, second round, Fluo-4, HEK293 TRPC4beta/mu-opioid, 1 µM, confirmation (AID 2554)
# Test Conditions: DAMGO EC20, Fluo-4 calcium flux, at 1 µM
Activity calls are given as the source filed them.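 The calls were made as follows: active = primary screen hit whose fluorescence ratio, in both repeats, exceeds the weak agonist control mean by 3 SD; inactive = the rest.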
Your answer must be one of the following: active, inactive

Cc1cccc(N2CCN(Cc3ccoc3)CC2)c1C = inactive
O=C(Nc1ccnn1C1CCN(CCCC2CCCC2)CC1)c1ccccc1Cl = inactive
Cc1onc(-c2ccccc2)c1C(=O)NNC(=S)NC(=O)c1ccc2c(c1)OCO2 = inactive

Field: outcome | Entry: Cc1sc2nc(SCC(N)=O)n(C)c(=O)c2c1C inactive

Field: outcome | Entry: COc1ccc2sc(N(CCCN(C)C)C(=O)c3ccc(S(=O)(=O)N4CCCc5ccccc54)cc3)nc2c1 inactive

Field: outcome | Entry: Cc1cc(Br)ccc1OCCN1CCCC1 active

Field: outcome | Entry: CSc1ccc(C(=O)NCC(c2ccco2)N(C)C)cc1[N+](=O)[O-] (stereo unspecified) inactive

Field: outcome | Entry: Clc1cccc(C[n+]2cc(-c3ccccc3)n3c2CCC3)c1 inactive

Field: outcome | Entry: CSc1ccc(/C=N\NC(=O)CC(=O)NC(C)C)cc1 inactive

Field: outcome | Entry: NC(=O)C(c1cccc(Cl)c1)c1ncc(C(F)(F)F)cc1Cl (stereo unspecified) inactive

Field: outcome | Entry: S=C(NCCc1cnc[nH]1)NC1CCCC1 inactive
